Overview of reported inhibition across a group of compounds:
# target of assay: Protein-arginine deiminase type-4 (Homo sapiens) (UniProt Q9UM07)
# Sequence (Q9UM07 whole entry, looked up): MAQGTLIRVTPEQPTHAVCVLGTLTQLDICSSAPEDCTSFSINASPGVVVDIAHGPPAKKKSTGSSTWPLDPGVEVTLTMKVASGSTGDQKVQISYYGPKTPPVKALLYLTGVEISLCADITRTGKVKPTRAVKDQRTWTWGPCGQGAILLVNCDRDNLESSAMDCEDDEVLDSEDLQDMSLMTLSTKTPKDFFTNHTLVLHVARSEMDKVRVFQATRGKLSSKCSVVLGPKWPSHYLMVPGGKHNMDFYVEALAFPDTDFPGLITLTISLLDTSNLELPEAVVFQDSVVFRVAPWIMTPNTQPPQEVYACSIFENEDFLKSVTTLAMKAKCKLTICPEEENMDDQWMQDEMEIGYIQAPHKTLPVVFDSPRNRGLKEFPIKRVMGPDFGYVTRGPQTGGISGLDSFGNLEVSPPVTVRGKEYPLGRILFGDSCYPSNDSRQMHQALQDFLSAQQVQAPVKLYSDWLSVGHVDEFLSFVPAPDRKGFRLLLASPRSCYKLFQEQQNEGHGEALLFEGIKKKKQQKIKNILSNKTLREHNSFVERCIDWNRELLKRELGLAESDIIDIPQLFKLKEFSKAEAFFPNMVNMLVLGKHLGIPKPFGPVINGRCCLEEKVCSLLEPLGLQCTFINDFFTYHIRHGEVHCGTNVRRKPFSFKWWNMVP
# assay procedure: human PAD4 inhibitors, confirmation, biochemical, fluorescence polarization (AID 488796);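 note: inhibitors block active-site labeling by the probe so polarization falls; 0% = PAD4 with probe and DMSO and 100% = probe without PAD4 enzyme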
# condition set: recombinant PAD4, RCA probe fluorescence polarization; at 6.36 µM; stronger effect = higher value
This is one part of the list.
outcome measure: inhibition (%)

INSERT INTO assay_data (mol_smiles, value) VALUES
  ('Cc1nn(Cc2ccccc2)c(C)c1CNC(=O)c1ccc(F)c(S(=O)(=O)N2CCOCC2)c1', 3.62),
  ('CC(=O)N(c1ccc2oc(=O)sc2c1)S(=O)(=O)c1ccc(C)cc1', 10.9),
  ('c1ccc2c(C[n+]3csc4ccccc43)cccc2c1', 61.3),
  ('Cc1nn(-c2ccccc2)c(C)c1NC(=O)COc1ccc(Cl)cc1Cl', 5.05),
  ('COc1cc(SC#N)ccc1N=Cc1c(C)[nH]n(-c2ccc(C)cc2)c1=O', 29.7),
  ('O=S(=O)(Nc1ccc(O)c2ccccc12)c1ccc(OC(F)(F)F)cc1', 15),
  ('O=c1[nH]n(-c2ccc([N+](=O)[O-])cc2)c(=O)c2ccccc12', 25.3),
  ('CCOc1c(Br)cc(/C=C2\C(=O)N(CCC#N)N=C2C)cc1OC', -1.18),
  ('Oc1c(C=Nc2cccc3nsnc23)ccc2ccccc12', -54.5),
  ('COc1ncnc2c1N=C1CC(C)(C)CC(N)=C1S2', 24.1),
  ('COc1ccc(S(=O)(=O)N2CCOCC2)cc1NC(=O)CSc1ncnc2ccccc12', 0.87),
  ('Oc1ccc(N=Cc2sc3ccccc3c2Cl)cc1', 3),
  ('Cc1nn(C)cc1N1C(=O)c2cccc3c(N)ccc(c23)C1=O', 36.2),
  ('Clc1ccc(C2=CSC3=Nc4cccc5cccc(c45)N23)cc1', -2.56),
  ('Cc1cc(C(=O)CSc2nc(N)cc(=O)[nH]2)c(C)n1CCc1ccc(Cl)cc1', 13.4),
  ('CCc1ccccc1NC(=S)Nc1cc(OC)c(NC(=O)C(C)C)cc1OC', 1.96),
  ('CCCCNC(=O)Nc1c(C)cc(SC#N)cc1C', 35.6),
  ('CCc1nnc(SCc2cccc(F)c2)nc1CC', -0.68),
  ('CCCCNC(=O)C1(c2ccc(OC)cc2)CCOCC1', 8.6),
  ('Cc1nc(Cl)c2oc3ccccc3c2n1', 7.72),
  ('Cc1cc2c(cc1C)N(C(=O)CN1C(=O)c3ccccc3C1=O)C(C)(C)c1ssc(=S)c1-2', 33.7),
  ('Nc1ccc(Nc2ccccc2)cc1', 6.93),
  ('COC(=O)c1ccc(NC(=O)CSc2nncc3ccc(OC)c(OC)c23)cc1', 0.13),
  ('Cc1ccc(C(=O)CSc2nc3ccccc3c(=O)n2N)o1', 1.81);
